target: T1, human recombinant IL-5 protein with a histidine tag at carboxyl terminal (human, UniProt P05113 20-134); test: BLI (Octet 96), binding molecule on sensor, IL-5 antigen 200 nM and 2-fold dilutions
T1 construct: range 20-134; Expressed in 293F cells; also called hrIL-5-cHis; human IL-5 protein; not shown: histidine tag at carboxyl terminal

{"BINDER": "humanized Fc-fused single-domain antibody 1B3-V2 (Fc fusion, not shown: a dimerising Fc or GST, Humanized variant of 1B3; vector RJK-V4-hFC) chain (part 1 of 2): QVQLVESGGGSVQAGGSLRLSCAASGITASTSCMGWFRQSPGKEREGSLATIYDASTSYADSVKGRFTISRDNSKNILYLQMNNLRAEDTAVYYCAAARYCMFWSHPSYWGQGTQVTVSS chain (part 2 of 2): HHHHHH", "OUTPUT_UNIT": "nM", "Kd": 1.02}
{"BINDER": "Fc fusion protein of anti-IL-5 single-domain antibody 2B3 (Fc fusion, not shown: a dimerising Fc or GST, Vector RJK-V4-hFC; also called clone 2B3) chain (part 1 of 2): QVQLVESGGGSVQAGGSLRLSCAASGNTFSFSTYCMGWFRQSPGKEREGSLATIYDGSTAYAGSVKGRFTISVDNAKNILYLQMNNLKPEDTAMYYCAAAKYCMFWSDPSYWGQGTQVTVSS chain (part 2 of 2): HHHHHH", "OUTPUT_UNIT": "nM", "Kd": 1.6}
{"BINDER": "humanized Fc-fused single-domain antibody 2B3-V2 (Fc fusion, not shown: a dimerising Fc or GST, Humanized variant of 2B3; vector RJK-V4-hFC) chain (part 1 of 2): QVQLVESGGGSVQAGGSLRLSCAASGNTFSFSTYCMGWFRQSPGKEREGSLATIYDASTAYAGSVKGRFTISRDNSKNILYLQMNNLRAEDTAVYYCAAARYCMFWSHPSYWGQGTQVTVSS chain (part 2 of 2): HHHHHH", "OUTPUT_UNIT": "nM", "Kd": 2.06}
{"BINDER": "Fc fusion protein of anti-IL-5 single-domain antibody 1B3 (Fc fusion, not shown: a dimerising Fc or GST, Vector RJK-V4-hFC; Embodiments name a human IgG4 Fc; also called clone 1B3) chain (part 1 of 2): QVQLVESGGGSVQAGGSLRLSCAASGITASTSCMGWFRQSPGKEREGSLATIYDGSTSYADSVKGRFTISVDNAKNILYLQMNNLKPEDTAMYYCAAAKYCMFWSHPSYWGQGTQVTVSS chain (part 2 of 2): HHHHHH", "OUTPUT_UNIT": "nM", "Kd": 0.88}
